Would you kindly list Binding (ELISA OD) for each of these binders?
study.system: wildtype feline IL-31 (Feline_IL31_wildtype) (feline)
Sequence (chain, as listed by the source limits assumed, form in doubt): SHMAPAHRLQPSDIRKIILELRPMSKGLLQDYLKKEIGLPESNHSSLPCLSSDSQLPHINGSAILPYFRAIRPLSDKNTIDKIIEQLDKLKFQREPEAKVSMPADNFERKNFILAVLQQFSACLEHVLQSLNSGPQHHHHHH
procedure.summary: indirect ELISA, coated IL-31
A number alone suffices; assume OD.

Consider the binder ZIL154 (antibody, V domains shown) VH: EVHLVESGGDLVKPWGSLRLSCVASGFTFSDRGMSWVRQSPGKGLQWVAYIRYDGSRTDYADAVEGRFTISRDNAKNTLYLQMNSLRAEDTAVYYCARWDGSSFDYWGQGTLVTVSS VL: DIVVTQTPLSLSVSPGETASFSCKASQSLLHSDGNTYLDWFRQKPGQSPQRLIYKVSNRDPGVPDRFSGSGSGTDFTLRISGVEADDAGLYYCMQAIHFPLTFGAGTKVELKR and give its measured Binding (ELISA OD).
1.62

Consider the binder mouse anti IL-31 antibody 11E12 (antibody, V domains shown) VH: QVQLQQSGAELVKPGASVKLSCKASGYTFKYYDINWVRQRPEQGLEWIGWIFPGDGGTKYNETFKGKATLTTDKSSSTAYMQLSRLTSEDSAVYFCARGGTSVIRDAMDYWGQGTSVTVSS VL: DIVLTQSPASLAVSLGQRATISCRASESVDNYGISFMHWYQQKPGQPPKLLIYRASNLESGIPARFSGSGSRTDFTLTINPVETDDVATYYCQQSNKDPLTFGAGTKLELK and give its measured Binding (ELISA OD).
1.15
